# Tested on: RS4; 11Bcl-2-G101V cells
# EXPERIMENT DESCRIPTION: CellTiter-Glo (CTG) cell viability assay in RS4;11-Bcl-2-G101V cells
# Type: cell-based
# APPLIED CONDITIONS: 72 h, 10% FBS, 3 days
pIC50: −log10 of the molar value.
Classification field: condition met = pIC50 at or over 6; condition not met = pIC50 under 6.

Answered cases to consult:
{"COMPOUND": "CC1(C)CCC(CN2CCN(c3ccc(C(=O)NS(=O)(=O)c4ccc(NC[C@H]5COCCO5)c([N+](=O)[O-])c4)c(Oc4cnc5[nH]ccc5c4)c3)CC2)=C(c2cc(-c3ccc(F)cn3)cs2)C1", "ASSIGNED LABEL": "condition not met"}
{"COMPOUND": "CC(CO)c1ccc(-c2csc(C3=C(CN4CCN(c5ccc(C(=O)NS(=O)(=O)c6ccc(NC[C@H]7CC[C@](C)(O)CC7)c([N+](=O)[O-])c6)c(Oc6cnc7[nH]ccc7c6)c5)CC4)CCC(C)(C)C3)c2)c(F)c1 (stereo partly drawn)", "ASSIGNED LABEL": "condition met"}
{"COMPOUND": "CC1(C)CCC(CN2CCN(c3ccc(C(=O)NS(=O)(=O)c4ccc(NC[C@H]5CC[C@](C)(O)CC5)c([N+](=O)[O-])c4)c(Oc4cnc5[nH]ccc5c4)c3)CC2)=C(c2cc(-c3c(F)cc(F)cc3F)cs2)C1", "ASSIGNED LABEL": "condition met"}
{"COMPOUND": "C[C@@H](O)c1cc(F)c(-c2csc(C3=C(CN4CCN(c5ccc(C(=O)NS(=O)(=O)c6ccc(NC[C@H]7CC[C@](C)(O)CC7)c([N+](=O)[O-])c6)c(Oc6cnc7[nH]ccc7c6)c5)CC4)CCC(C)(C)C3)c2)c(F)c1", "ASSIGNED LABEL": "condition met"}
{"COMPOUND": "CC(C)(O)Cc1ccc(-c2csc(C3=C(CN4CCN(c5ccc(C(=O)NS(=O)(=O)c6ccc(NC[C@H]7CC[C@](C)(O)CC7)c([N+](=O)[O-])c6)c(Oc6cnc7[nH]ccc7c6)c5)CC4)CCC(C)(C)C3)c2)c(F)c1", "ASSIGNED LABEL": "condition met"}
{"COMPOUND": "CC(C)c1cscc1C1=C(CN2CCN(c3ccc(C(=O)NS(=O)(=O)c4ccc(NCC5CCOCC5)c([N+](=O)[O-])c4)c(Oc4cnc5[nH]ccc5c4)c3)CC2)CCC(C)(C)C1", "ASSIGNED LABEL": "condition not met"}

Kindly determine if pIC50 recorded for CC1(C)CCC(CN2CCN(c3ccc(C(=O)NS(=O)(=O)c4ccc(NCC5CCOCC5)c([N+](=O)[O-])c4)c(Oc4cnc5[nH]ccc5c4)c3)CC2)=C(c2ccc(Cl)cc2)C1 [ABT-199, Venetoclax, reference compound] is above or exactly 6.
condition not met

Kindly determine if pIC50 recorded for CC1(C)CCC(CN2CCN(c3ccc(C(=O)NS(=O)(=O)c4ccc(NC[C@H]5CC[C@](C)(O)CC5)c([N+](=O)[O-])c4)c(Oc4cnc5[nH]ccc5c4)c3)CC2)=C(c2cc(-c3ccc(C(C)(O)C(F)(F)F)cc3F)cs2)C1 (stereo partly drawn) is above or exactly 6.
condition met
